Source of measurements: ChEMBL document CHEMBL1154253

Assay: Induction of apoptosis in human MUTU-I cells after 24 hrs by annexin V-propidium iodide staining-based FACS analysis
Assay type: functional, cell-based
This section presents molecules with their documented pEC50 values.
API: returns pEC50 as number; meaning -log10 of concentration in mol/L.

1. CCC(N)c1ccc(SC)cc1 (configuration not stated)
4.68

Now for another entry.
Tell me measured pEC50 for CC(N)Cc1ccc(Sc2ccccc2)cc1 (configuration not stated) please.
4.85

* * *

Target: Sodium-dependent serotonin transporter (Rattus norvegicus)
Sequence (P31652 whole entry): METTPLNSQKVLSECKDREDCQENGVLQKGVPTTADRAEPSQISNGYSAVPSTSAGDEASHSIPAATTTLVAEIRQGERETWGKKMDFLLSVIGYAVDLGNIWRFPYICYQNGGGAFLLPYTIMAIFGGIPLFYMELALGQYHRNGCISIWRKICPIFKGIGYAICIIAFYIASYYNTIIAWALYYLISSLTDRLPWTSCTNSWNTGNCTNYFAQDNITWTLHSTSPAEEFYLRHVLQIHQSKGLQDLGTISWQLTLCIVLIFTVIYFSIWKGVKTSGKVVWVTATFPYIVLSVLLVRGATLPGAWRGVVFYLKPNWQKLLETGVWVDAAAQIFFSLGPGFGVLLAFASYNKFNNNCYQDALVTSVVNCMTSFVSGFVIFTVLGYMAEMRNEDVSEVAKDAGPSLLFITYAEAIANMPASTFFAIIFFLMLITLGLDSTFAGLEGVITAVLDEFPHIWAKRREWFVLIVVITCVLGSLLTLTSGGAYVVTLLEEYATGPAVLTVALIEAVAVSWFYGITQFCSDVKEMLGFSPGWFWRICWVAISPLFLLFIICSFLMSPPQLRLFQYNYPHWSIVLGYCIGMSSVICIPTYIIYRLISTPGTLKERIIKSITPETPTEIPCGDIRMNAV
Assay: Inhibition of [3H]5-HT reuptake at rat SERT expressed in HEK293 cells after 2 mins by liquid scintillation counting
Assay type: cell-based
QUANTITY MEASURED: log10 IC50 (log10 of the value in nM)
A difference of one corresponds to tenfold IC50; all values are log10 with IC50 in nM.

1. CCSc1ccc(CC(CC)N(C)O)cc1 (centres undefined)
3.30

Recall the reported log10 IC50 of CCC(Cc1ccc(SC)cc1)NO (centres undefined) when tested on Sodium-dependent serotonin transporter (Rattus norvegicus).
2.78

Recall the reported log10 IC50 of CSc1ccc(CC(C)N(C)C)cc1 (centres undefined) when tested on Sodium-dependent serotonin transporter (Rattus norvegicus).
2.72

Recall the reported log10 IC50 of COCCNC(C)Cc1ccc(SC)cc1 (centres undefined) when tested on Sodium-dependent serotonin transporter (Rattus norvegicus).
3.55

Recall the reported log10 IC50 of CSc1ccc(CC(C)N)cc1 (centres undefined) when tested on Sodium-dependent serotonin transporter (Rattus norvegicus).
2.32

* * *

Molecular target: Sodium-dependent dopamine transporter (Homo sapiens)
Sequence (Q01959 whole entry): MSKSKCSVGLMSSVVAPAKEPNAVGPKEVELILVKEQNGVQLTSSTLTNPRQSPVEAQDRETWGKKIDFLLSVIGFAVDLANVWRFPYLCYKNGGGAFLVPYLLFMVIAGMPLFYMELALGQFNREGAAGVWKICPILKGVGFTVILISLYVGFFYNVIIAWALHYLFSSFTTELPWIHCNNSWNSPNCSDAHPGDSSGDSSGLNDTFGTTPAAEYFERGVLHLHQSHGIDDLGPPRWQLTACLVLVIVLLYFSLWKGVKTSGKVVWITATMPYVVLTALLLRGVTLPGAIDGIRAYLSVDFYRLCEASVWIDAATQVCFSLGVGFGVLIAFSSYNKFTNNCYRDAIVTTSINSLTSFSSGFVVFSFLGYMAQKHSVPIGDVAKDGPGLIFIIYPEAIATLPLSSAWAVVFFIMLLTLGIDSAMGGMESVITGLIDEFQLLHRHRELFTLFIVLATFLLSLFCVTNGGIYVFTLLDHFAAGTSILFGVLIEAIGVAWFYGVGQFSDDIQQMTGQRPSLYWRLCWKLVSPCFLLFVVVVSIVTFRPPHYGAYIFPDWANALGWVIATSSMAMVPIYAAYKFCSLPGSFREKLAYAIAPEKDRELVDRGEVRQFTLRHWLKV
QUANTITY MEASURED: pIC50
API: returns pIC50 as number; meaning -log10 of concentration in mol/L.

Some solved entries appear below for comparison.
1) CC(N)Cc1ccc2c(c1)OCO2 (centres undefined)
6.05
2) CNC(C)Cc1ccc2c(c1)OCO2 (centres undefined)
5.84
3) CC(N)Cc1ccc(Cl)cc1 (centres undefined)
6.37

Now for another entry.
Recall the reported pIC50 of CSc1ccc(CC(C)N)cc1 (centres undefined) when tested on Sodium-dependent dopamine transporter (Homo sapiens).
5.51

* * *

UniProt:P23975 data, read-out IC50
Sequence (P23975 whole entry): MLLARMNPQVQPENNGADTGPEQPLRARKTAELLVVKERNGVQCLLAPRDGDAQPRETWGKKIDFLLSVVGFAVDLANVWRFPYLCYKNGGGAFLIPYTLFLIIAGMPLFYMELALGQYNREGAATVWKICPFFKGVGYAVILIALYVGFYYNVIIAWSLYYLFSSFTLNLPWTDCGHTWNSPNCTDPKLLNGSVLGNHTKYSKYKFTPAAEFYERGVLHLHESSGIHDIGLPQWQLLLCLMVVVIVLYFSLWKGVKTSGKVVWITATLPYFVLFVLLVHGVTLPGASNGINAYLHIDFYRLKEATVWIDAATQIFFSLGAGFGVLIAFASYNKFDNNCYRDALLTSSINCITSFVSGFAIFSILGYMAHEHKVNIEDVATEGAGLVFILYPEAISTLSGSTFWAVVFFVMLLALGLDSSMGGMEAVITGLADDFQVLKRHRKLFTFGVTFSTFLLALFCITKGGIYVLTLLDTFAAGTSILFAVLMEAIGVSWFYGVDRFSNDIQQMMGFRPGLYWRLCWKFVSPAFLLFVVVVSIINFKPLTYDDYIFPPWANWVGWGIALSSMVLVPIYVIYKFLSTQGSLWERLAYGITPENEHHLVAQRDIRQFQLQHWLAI
Give just the number in nM; leave the unit off.

Recall the reported IC50 of CSc1ccc(CC(C)N)cc1 (centres undefined) [4-METHYLTHIOAMPHETAMINE] when tested on UniProt:P23975.
2380

Recall the reported IC50 of CC(N)Cc1ccc(Cl)cc1 (centres undefined) when tested on UniProt:P23975.
207

Recall the reported IC50 of CC(N)Cc1ccc2c(c1)OCO2 (centres undefined) [TENAMFETAMINE] when tested on UniProt:P23975.
266

Recall the reported IC50 of CNC(C)Cc1ccc2c(c1)OCO2 (centres undefined) [MIDOMAFETAMINE] when tested on UniProt:P23975.
405

* * *

System: SH-SY5Y
Assay: Cytotoxicity against human SH-SY5Y cells after 48 hrs by neutral red assay
Format: functional, cell-based
Details: read-out: pEC50 (converted)
This section presents compounds with their documented EC50 values.
Give just the number in mM; leave the unit off.

1) CCC(N)c1ccc(SC)cc1 (stereo not drawn)
0.0195

Now for another entry.
Tell me measured EC50 for CCCNC(CC)Cc1ccc(SC)cc1 (stereo not drawn) please.
3.02

* * *

This section presents molecules with their documented EC50 values.
Tested on: SH-SY5Y
Test: Cytotoxicity against human SH-SY5Y cells after 48 hrs by neutral red assay
Assay type: functional, cell-based
Conditions: read-out: pEC50 (converted)
Give just the number in µM; leave the unit off.

1) CSc1ccc(CC(C)NC2CC2)cc1 (configuration not stated)
372
2) CNC(C)Cc1ccc(SC)cc1 (configuration not stated)
1550
3) CCSc1ccc(CC(N)CC)cc1 (configuration not stated)
53.7
4) CCC(Cc1ccc(SC)cc1)NC(C)C (configuration not stated)
339
5) CC(N)Cc1ccc(SCc2ccccc2)cc1 (configuration not stated)
19.5
6) CCNC(CC)Cc1ccc(SCC)cc1 (configuration not stated)
245

Tell me measured EC50 for CC(N)Cc1ccc(SCCN(C)C)cc1 (configuration not stated) please.
240

Tell me measured EC50 for C=CCNC(C)Cc1ccc(SC)cc1 (configuration not stated) please.
123

Tell me measured EC50 for CSc1ccc(CC(C)N(C)C)cc1 (configuration not stated) please.
1860

Tell me measured EC50 for CCSc1ccc(CC(C)NC)cc1 (configuration not stated) please.
282

Tell me measured EC50 for CCSc1ccc(CC(C)N(C)O)cc1 (configuration not stated) please.
43.7

Tell me measured EC50 for CC(N)Cc1ccc(SC(C)(C)C)cc1 (configuration not stated) please.
20.4

Tell me measured EC50 for CSc1ccc(CC(C)N(C)O)cc1 (configuration not stated) please.
229

Tell me measured EC50 for CSc1ccc(CC(C)NCCO)cc1 (configuration not stated) please.
2290

Tell me measured EC50 for CCC(N)Cc1ccc(SC)cc1 (configuration not stated) please.
437

Tell me measured EC50 for CSc1ccc(CC(C)NC(C)C)cc1 (configuration not stated) please.
1950

Tell me measured EC50 for CCC(Cc1ccc(SC)cc1)NCCOC (configuration not stated) please.
3890

Tell me measured EC50 for C#CCNC(C)Cc1ccc(SC)cc1 (configuration not stated) please.
2340

Tell me measured EC50 for CC(N)Cc1ccc(Sc2ccccc2)cc1 (configuration not stated) please.
13.2

Tell me measured EC50 for CCSc1ccc(CC(C)NO)cc1 (configuration not stated) please.
708

Tell me measured EC50 for CCNC(C)Cc1ccc(SC)cc1 (configuration not stated) please.
1860

Tell me measured EC50 for COCCNC(C)Cc1ccc(SC)cc1 (configuration not stated) please.
1350

Tell me measured EC50 for CSc1ccc(CC(C)NO)cc1 (configuration not stated) please.
575
